Assay target: Fibroblast growth factor receptor 3 (Homo sapiens) (UniProt P22607);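 note: each value is a mean percent inhibition of FGFR3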
Sequence (P22607 23-806 limits assumed): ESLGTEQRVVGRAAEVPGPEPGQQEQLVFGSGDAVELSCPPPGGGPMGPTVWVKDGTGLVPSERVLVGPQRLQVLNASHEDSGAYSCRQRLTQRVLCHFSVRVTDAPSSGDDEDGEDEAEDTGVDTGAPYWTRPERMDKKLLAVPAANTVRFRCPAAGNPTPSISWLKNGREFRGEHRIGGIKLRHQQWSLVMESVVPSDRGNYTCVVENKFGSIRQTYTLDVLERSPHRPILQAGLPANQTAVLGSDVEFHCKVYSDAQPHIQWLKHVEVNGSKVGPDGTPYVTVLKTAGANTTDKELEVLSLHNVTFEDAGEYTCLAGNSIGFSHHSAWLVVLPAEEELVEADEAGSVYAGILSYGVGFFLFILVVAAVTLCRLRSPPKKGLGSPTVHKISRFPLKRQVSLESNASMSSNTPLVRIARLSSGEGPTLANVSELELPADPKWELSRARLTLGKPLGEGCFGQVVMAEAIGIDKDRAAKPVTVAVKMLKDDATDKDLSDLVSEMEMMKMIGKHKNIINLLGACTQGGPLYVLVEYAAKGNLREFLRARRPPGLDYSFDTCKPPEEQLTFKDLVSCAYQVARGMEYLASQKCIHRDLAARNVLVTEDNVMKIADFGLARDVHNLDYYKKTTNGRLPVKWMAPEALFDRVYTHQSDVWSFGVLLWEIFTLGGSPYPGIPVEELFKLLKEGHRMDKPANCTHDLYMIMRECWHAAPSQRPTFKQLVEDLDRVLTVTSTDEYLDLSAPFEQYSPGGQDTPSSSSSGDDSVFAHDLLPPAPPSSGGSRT
Assay context: at 0.1 µM
Please provide measured inhibition for the entries that follow.
Numbers only, in %.

| Structure notation | Assay target | inhibition / % |
| --- | --- | --- |
| COC(=O)Nc1nc2ccc(Sc3ccc(NC(=O)Nc4cc(C(F)(F)F)ccc4F)cc3)cc2[nH]1 | Fibroblast growth factor receptor 3 (Homo sapiens) (UniProt P22607) | 2.1 |
| Cc1ccc(C(=O)NC(C)C)cc1-c1ccc(C(=O)NCC2CC2)cc1 | Fibroblast growth factor receptor 3 (Homo sapiens) (UniProt P22607) | -4.95 |

Go through the items and report each one's inhibition.
1. COc1cc2ncn(-c3cc(OCCc4ccccc4)c(C(N)=O)s3)c2cc1OC
2. CN(c1ccc(NC(=O)Nc2c(Cl)cccc2Cl)cc1)c1ccnc(Nc2cccc(CS(C)(=O)=O)c2)n1
3. COc1cc(Nc2ncc3c(C)nc(-c4cccc(C(F)(F)F)c4)n3n2)cc(OC)c1OC
4. COc1cc2ncn(-c3cc(OCc4cccs4)c(C(N)=O)s3)c2cc1OC

Reply:
[2.83, 0.14, 3.25, 1.72]

###

Please provide measured inhibition for the entries that follow.
Assay target: Serine/threonine-protein kinase Chk2 (Homo sapiens) (UniProt O96017)
Sequence (O96017 whole entry): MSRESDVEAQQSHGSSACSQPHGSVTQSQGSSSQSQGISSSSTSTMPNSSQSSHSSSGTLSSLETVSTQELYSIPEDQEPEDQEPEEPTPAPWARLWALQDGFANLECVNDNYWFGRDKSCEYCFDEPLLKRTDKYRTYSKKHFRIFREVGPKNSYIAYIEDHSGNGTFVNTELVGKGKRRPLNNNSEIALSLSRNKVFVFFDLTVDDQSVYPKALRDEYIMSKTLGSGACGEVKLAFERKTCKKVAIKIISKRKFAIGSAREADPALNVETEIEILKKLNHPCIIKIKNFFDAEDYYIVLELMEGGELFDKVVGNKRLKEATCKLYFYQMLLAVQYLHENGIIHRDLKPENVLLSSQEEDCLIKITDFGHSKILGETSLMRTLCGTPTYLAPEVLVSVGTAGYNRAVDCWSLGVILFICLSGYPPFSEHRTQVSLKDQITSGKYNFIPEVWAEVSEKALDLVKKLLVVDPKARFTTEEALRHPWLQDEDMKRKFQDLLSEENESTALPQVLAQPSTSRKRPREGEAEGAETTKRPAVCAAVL
Assay context: at 0.1 µM
Description: GSK_PKIS: CHEK2 mean inhibition at 0.1 uM [Nanosyn]
Answers are plain numbers, in %.

| Structure notation | Assay target | Recorded number |
| --- | --- | --- |
| O=C1NC(=O)C(c2cccc(Cl)c2)=C1Nc1ccc(Cl)c(C(=O)O)c1 | Serine/threonine-protein kinase Chk2 (Homo sapiens) (UniProt O96017) | 2.39 |
| c1ccc(Oc2ccc(Nc3ncc(-c4ccccc4)o3)cc2)cc1 | Serine/threonine-protein kinase Chk2 (Homo sapiens) (UniProt O96017) | 0.58 |

Task item: May I ask what inhibition has been recorded for CCS(=O)(=O)c1ccc(OC)c(Nc2ncc(-c3cccc(-c4ccccc4F)c3)o2)c1 ?
Reply: -0.11

###

Assay target: Receptor-type tyrosine-protein kinase FLT3 (Homo sapiens) (UniProt P36888);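 note: values are mean percent inhibition of FLT3 kinase activity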
Sequence (P36888 whole entry): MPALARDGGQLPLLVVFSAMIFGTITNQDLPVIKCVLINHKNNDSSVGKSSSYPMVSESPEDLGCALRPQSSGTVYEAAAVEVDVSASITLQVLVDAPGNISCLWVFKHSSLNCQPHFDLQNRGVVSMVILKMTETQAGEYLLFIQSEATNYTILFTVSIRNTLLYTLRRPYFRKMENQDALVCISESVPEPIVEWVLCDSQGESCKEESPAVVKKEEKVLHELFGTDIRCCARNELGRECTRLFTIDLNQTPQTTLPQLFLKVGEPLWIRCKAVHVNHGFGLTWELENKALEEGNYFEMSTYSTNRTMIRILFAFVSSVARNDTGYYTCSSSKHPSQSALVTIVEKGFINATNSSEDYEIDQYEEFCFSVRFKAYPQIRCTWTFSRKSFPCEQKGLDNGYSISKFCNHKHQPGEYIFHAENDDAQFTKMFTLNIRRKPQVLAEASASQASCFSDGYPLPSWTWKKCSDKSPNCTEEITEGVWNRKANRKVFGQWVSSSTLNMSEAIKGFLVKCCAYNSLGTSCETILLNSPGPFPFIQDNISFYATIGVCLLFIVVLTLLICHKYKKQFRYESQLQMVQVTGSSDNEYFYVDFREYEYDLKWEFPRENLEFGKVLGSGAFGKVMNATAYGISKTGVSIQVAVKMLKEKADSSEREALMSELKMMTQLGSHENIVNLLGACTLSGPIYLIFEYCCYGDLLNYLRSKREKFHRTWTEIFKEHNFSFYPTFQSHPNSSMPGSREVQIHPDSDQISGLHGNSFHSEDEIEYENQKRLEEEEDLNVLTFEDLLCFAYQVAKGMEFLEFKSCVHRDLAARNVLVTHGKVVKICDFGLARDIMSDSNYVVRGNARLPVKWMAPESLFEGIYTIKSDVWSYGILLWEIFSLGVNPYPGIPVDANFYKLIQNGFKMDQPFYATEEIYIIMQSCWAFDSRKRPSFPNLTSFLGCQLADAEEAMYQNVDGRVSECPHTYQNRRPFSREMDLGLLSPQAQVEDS
Assay context: at 1 µM
Quantity name: inhibition (%)
Numbers only, in %.

| Structure notation | inhibition / % |
| --- | --- |
| CCc1ccc(Oc2nccc(-c3c(-c4ccc(F)cc4)ncn3C3CCNCC3)n2)cc1 | 5.11 |
| O=C(NCC1CC1)c1ccc(-c2cccc(C(=O)NC3CC3)c2)cc1 | 3.46 |
| CS(=O)(=O)CCNCc1cc(-c2cc3c(Nc4ccc(OCc5cccc(F)c5)c(Cl)c4)ncnc3s2)cs1 | 6.93 |
| COc1cc2ncn(-c3cc(OCc4cccs4)c(C(N)=O)s3)c2cc1OC | 4.24 |
| C#Cc1cccc(Nc2ncnc3ccc(OCCCCNCCS(C)(=O)=O)cc23)c1 | 2.94 |

Go through the items and report each one's inhibition.
1. NC(=O)c1ccc(Oc2nccc(-c3c(-c4ccc(F)cc4)ncn3C3CCNCC3)n2)cc1
2. CS(=O)(=O)CCNCc1ccc(-c2ccc3ncnc(Nc4ccc(OCc5ccccc5)c(Br)c4)c3c2)o1
3. Clc1ccc(CNc2nccc(-c3cnn4ncccc34)n2)cc1

Reply:
[4.78, 1.3, 1.79]

Go through the items and report each one's inhibition.
1. Cc1nnc(-c2ccc(C)c(-c3ccc(C(=O)NCc4ccc(Cl)cc4)cc3)c2)o1
2. N#Cc1ccc(Oc2nccc(-c3c(-c4ccc(F)cc4)ncn3C3CCNCC3)n2)cc1
3. Cc1ccc(C(=O)NC2CCC2)cc1-c1ccc(C(=O)NCC2CC2)cc1
4. O=C(Nc1n[nH]c2nc(-c3ccc(O)cc3)c(Br)cc12)C1CC1
5. CCc1cccc(CC)c1/C=C/c1cncc(C(=O)NC)c1
6. Fc1ccc(-c2ncn(C3CCNCC3)c2-c2ccnc(Oc3ccc(F)c(F)c3)n2)cc1
7. CN1CCN(CCCNc2nc3ccc(Oc4ccc(NC(=O)Nc5cc(C(F)(F)F)ccc5F)cc4)cc3[nH]2)CC1

Reply:
1: 0.77; 2: 3.98; 3: 1.62; 4: 25.7; 5: 4.49; 6: 4.18; 7: 61.2

###

Assay target: MAP/microtubule affinity-regulating kinase 3 (Homo sapiens) (UniProt P27448);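 note: mean percent inhibition of MARK3 kinase activity, measured within the GSK PKIS screening panel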
Sequence (P27448 whole entry, looked up): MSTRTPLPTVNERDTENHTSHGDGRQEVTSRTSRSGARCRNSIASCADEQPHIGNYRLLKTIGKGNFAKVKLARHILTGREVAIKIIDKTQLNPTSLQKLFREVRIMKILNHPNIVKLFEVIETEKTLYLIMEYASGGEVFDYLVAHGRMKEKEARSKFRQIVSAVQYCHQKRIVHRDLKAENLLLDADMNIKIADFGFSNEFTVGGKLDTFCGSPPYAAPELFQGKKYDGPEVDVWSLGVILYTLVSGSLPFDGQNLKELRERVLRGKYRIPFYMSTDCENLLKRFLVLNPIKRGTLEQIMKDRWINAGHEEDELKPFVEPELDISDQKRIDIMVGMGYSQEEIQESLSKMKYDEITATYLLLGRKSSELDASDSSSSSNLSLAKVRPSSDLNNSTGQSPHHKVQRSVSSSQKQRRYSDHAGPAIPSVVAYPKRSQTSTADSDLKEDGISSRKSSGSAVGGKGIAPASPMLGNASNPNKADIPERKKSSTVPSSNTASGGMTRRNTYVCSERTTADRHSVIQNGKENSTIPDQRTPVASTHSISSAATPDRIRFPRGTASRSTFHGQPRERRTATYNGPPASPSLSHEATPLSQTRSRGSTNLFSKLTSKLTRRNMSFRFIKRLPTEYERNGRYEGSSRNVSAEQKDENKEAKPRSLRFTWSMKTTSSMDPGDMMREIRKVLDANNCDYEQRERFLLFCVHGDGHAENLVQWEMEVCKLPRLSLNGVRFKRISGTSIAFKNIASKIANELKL
Assay context: at 0.1 µM
Quantity name: inhibition (%)
Answers are plain numbers, in %.

Here's what some known entries look like.
| Structure notation | Assay target | Unit tag | inhibition |
| --- | --- | --- | --- |
| CNC(=O)c1cncc(/C=C/c2c(C)cccc2C)c1 | MAP/microtubule affinity-regulating kinase 3 (Homo sapiens) (UniProt P27448) | % | 0.44 |
| COc1cc(Nc2ncc3c(C)nc(-c4cccc(C(F)(F)F)c4)n3n2)cc(OC)c1OC | MAP/microtubule affinity-regulating kinase 3 (Homo sapiens) (UniProt P27448) | % | 1.84 |

Kindly review the next compound as well.
Task item: May I ask what inhibition has been recorded for COc1cc(Nc2ncc(-c3ccccc3)o2)cc(OC)c1OC ?
Reply: 2.51

###

Please provide measured inhibition for the entries that follow.
Assay target: Mitogen-activated protein kinase 1 (Homo sapiens) (UniProt P28482);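 note: reported figure is an averaged percent inhibition of the kinase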
Sequence (P28482 whole entry): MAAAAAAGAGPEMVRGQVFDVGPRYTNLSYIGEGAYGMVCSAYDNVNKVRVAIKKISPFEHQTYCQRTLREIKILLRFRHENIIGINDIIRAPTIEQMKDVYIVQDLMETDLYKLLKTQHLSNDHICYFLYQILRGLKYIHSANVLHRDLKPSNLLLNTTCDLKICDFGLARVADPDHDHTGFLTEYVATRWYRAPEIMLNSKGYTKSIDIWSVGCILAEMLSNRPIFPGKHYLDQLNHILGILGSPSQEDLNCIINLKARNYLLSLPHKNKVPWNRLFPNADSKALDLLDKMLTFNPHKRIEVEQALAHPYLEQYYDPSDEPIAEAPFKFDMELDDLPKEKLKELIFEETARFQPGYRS
Assay context: at 0.1 µM
Answers are plain numbers, in %.

Go through the items and report each one's inhibition.
1. NS(=O)(=O)c1ccc(N/N=C2\C(=O)Nc3ccc(-c4cnco4)cc32)cc1
2. COc1cc(Nc2ncc(-c3ccccc3)o2)cc(OC)c1OC
3. O=C1Nc2ccccc2/C1=C/Nc1ccc(-n2cncn2)cc1

Reply:
[3.21, -2.3, 6.04]

Go through the items and report each one's inhibition.
1. COc1cccc(/C=N/Nc2ncnc3c2cnn3-c2cccc(OC)c2)c1
2. COc1ccc(-c2ccc3c(NC(=O)C4CC4)n[nH]c3n2)cc1
3. Fc1ccc(-c2ncn(C3CCNCC3)c2-c2ccnc(Oc3ccc(F)c(F)c3)n2)cc1

Reply:
1. 5.68
2. 2.19
3. 4.93

Go through the items and report each one's inhibition.
1. CCC(=O)Nc1ccc(C)c(-c2ccc(C(=O)NCC3CC3)cc2)c1
2. COc1cc2ncn(-c3cc(OCCc4ccccc4)c(C(N)=O)s3)c2cc1OC
3. Clc1ccc(CNc2nccc(-c3cnn4ncccc34)n2)cc1
4. NCc1ccc(-n2c(-c3nonc3N)nc3cnccc32)cc1

Reply:
4.32
1.47
4.19
6.45

Go through the items and report each one's inhibition.
1. C#Cc1cccc(Nc2ncnc3ccc(OCCCCNCCS(C)(=O)=O)cc23)c1
2. O=C(Nc1n[nH]c2cc(-c3ccccc3)ccc12)C1CC1
3. COc1ccc2ncn(-c3cc(O[C@H](C)c4ccccc4Cl)c(C(N)=O)s3)c2c1
4. CCS(=O)(=O)c1ccc(OC)c(Nc2ncc(-c3cccc(-c4ccccc4F)c3)o2)c1

Reply:
5.06
2.48
5.14
-1.77

Go through the items and report each one's inhibition.
1. CN1CCN(CCCNc2nc3ccc(Oc4ccc(NC(=O)Nc5cc(C(F)(F)F)ccc5F)cc4)cc3[nH]2)CC1
2. COC(=O)Nc1nc2ccc(Sc3ccc(NC(=O)Nc4cc(C(F)(F)F)ccc4F)cc3)cc2[nH]1
3. CNC(=O)c1cncc(/C=C/c2c(C)cccc2C)c1

Reply:
[1.47, -0.51, -3.06]

Go through the items and report each one's inhibition.
1. Cc1ccc(NC(=O)c2ccoc2)cc1-c1ccc(C(=O)NCC2CC2)cc1
2. O=C(NCC1CC1)c1ccc(-c2cccc(C(=O)NC3CC3)c2)cc1

Reply:
1: 3.2; 2: 1.42

Go through the items and report each one's inhibition.
1. NC(=O)c1ccc(Oc2nccc(-c3c(-c4ccc(F)cc4)ncn3C3CCNCC3)n2)cc1
2. NC(=O)c1cc(-c2ccc(F)cc2)cc(-c2ccncc2)c1N
3. COc1cc(Nc2ncc3c(C)nc(-c4cccc(C(F)(F)F)c4)n3n2)cc(OC)c1OC

Reply:
5.21
4.92
5.55

Go through the items and report each one's inhibition.
1. C[C@@H](Oc1cc(-n2cnc3ccc(OC4CCN(C)CC4)cc32)sc1C(N)=O)c1ccccc1Cl
2. O=C(Nc1n[nH]c2cc(-c3cc(F)ccc3F)ccc12)C1CC1

Reply:
[5.74, 2.24]

###

Assay target: Serine/threonine-protein kinase Sgk1 (Homo sapiens) (UniProt O00141);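 note: mean percent inhibition of SGK1, from the GSK PKIS screening panel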
Sequence (whole entry): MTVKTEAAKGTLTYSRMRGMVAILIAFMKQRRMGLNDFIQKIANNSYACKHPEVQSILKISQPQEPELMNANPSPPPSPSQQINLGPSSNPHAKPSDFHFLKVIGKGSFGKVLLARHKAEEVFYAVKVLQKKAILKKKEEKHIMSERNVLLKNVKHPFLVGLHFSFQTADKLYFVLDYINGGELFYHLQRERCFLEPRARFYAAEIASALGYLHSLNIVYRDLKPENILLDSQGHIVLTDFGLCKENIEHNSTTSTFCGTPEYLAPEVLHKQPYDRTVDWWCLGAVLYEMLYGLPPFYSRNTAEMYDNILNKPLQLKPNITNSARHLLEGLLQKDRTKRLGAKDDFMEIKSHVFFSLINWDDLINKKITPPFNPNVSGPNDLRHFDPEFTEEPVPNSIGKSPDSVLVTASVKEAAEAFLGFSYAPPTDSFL
Assay context: at 1 µM
Quantity name: inhibition (%)
Give bare numbers, in %.

| Structure notation | Unit tag | inhibition |
| --- | --- | --- |
| COC(=O)Nc1nc2ccc(Sc3ccc(NC(=O)Nc4cc(C(F)(F)F)ccc4F)cc3)cc2[nH]1 | % | 4.52 |
| O=C(Nc1n[nH]c2nc(-c3ccc(O)cc3)c(Br)cc12)C1CC1 | % | 12.1 |

Kindly review the next compound as well.
Task item: Which inhibition is reported with Serine/threonine-protein kinase Sgk1 (Homo sapiens) (UniProt O00141) for this entry: Cc1ccc(C(=O)NC2CCC2)cc1-c1ccc(C(=O)NCC2CC2)cc1 ?
Reply: 2.8
